Target: BTK (Homo sapiens, UniProt Q06187)
Construct: purchased KinomeScan, a division of Ambit Biosciences
Sequence (Q06187 whole entry): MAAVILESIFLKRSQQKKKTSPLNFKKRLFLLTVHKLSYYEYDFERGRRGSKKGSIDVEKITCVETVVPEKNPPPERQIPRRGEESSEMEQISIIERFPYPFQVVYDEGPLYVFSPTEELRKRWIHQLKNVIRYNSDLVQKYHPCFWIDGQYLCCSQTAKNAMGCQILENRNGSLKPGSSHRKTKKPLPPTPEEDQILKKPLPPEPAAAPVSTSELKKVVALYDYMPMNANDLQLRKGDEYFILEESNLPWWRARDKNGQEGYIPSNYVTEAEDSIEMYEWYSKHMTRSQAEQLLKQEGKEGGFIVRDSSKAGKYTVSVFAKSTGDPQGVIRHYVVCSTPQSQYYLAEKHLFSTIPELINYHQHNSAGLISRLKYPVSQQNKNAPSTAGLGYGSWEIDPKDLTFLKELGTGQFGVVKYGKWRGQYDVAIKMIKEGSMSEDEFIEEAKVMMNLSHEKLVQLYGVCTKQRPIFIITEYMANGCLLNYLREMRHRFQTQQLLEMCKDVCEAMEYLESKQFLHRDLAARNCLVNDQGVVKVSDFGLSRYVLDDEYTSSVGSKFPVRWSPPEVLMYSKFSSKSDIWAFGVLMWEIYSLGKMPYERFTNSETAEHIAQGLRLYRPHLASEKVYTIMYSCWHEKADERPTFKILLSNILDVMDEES
Assay: KinomeScan competition binding assay
Details: 10 μM compound
measurement kind: POC ligand binding, BTK (POC)
Express your answer in POC, writing the number without its unit.

The compound identified as N#Cc1ccc2ncnc(NCCc3ccccc3)c2c1 registered its POC ligand binding, BTK at 15

Noted for CCCNc1ncnc2ccc(N3CCOCC3)cc12 : its POC ligand binding, BTK reads 81

Value of measured POC ligand binding, BTK for the entry COc1ccc2ncnc(NCCc3ccccc3)c2c1 : 100

Note to self: POC ligand binding, BTK recorded for N#Cc1ccc2ncnc(NCc3ccc4ccccc4c3)c2c1 [compound 43] was 100

Memo: N#Cc1ccc2ncnc(NCc3ccc(Cl)cc3)c2c1 , reported POC ligand binding, BTK: 100

Lab note: measured POC ligand binding, BTK of N#Cc1ccc2ncnc(NCCc3ccc4ccccc4c3)c2c1 was 100

The compound identified as N#Cc1ccc2ncnc(NCc3ccc4ccccc4c3)c2c1 [compound 14] registered its POC ligand binding, BTK at 100

POC ligand binding, BTK recorded for this compound, CC(C)CNc1ncnc2ccc(C(F)(F)F)cc12 , is 100

====

Molecular target: CLK1 (Homo sapiens)
Construct: purchased KinomeScan, a division of Ambit Biosciences
Sequence (P49759 whole entry): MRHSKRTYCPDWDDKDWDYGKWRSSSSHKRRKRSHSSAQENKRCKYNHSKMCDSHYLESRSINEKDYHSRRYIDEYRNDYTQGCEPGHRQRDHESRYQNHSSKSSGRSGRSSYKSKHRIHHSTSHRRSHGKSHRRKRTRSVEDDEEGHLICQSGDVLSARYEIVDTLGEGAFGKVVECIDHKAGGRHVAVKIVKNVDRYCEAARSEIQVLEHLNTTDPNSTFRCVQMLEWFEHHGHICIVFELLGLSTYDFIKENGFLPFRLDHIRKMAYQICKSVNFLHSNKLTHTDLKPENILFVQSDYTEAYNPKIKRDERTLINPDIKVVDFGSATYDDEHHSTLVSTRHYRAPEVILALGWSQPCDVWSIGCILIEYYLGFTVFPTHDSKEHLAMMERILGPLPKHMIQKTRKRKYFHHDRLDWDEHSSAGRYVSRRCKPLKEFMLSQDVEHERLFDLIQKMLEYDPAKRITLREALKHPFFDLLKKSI
Experiment: KinomeScan competition binding assay
Conditions: 10 μM compound
We use 20 POC as the dividing line for POC ligand binding, CLK1: on or above the line is TRUE, below is FALSE.

Exam item: decide whether the reported POC ligand binding, CLK1 for N#Cc1ccc2ncnc(NCCc3ccccc3)c2c1 [compound 1] is at least 20 POC.
FALSE

Reported POC ligand binding, CLK1 at or above 20 POC? CC(C)CNc1ncnc2ccc(C(F)(F)F)cc12 [compound 45]
FALSE

Kindly determine if POC ligand binding, CLK1 recorded for N#Cc1ccc2ncnc(NCc3ccc(Cl)cc3)c2c1 [compound 20] is above or exactly 20 POC.
FALSE

Would you say COc1ccc2ncnc(NCCc3ccccc3)c2c1 [compound 44] shows POC ligand binding, CLK1 at minimum 20 POC?
FALSE

Decide: POC ligand binding, CLK1 of CCCNc1ncnc2ccc(N3CCOCC3)cc12 [compound 46] >= 20 POC?
TRUE

Determine whether this compound has POC ligand binding, CLK1 no lower than 20 POC: N#Cc1ccc2ncnc(NCCc3ccc4ccccc4c3)c2c1 [compound 26]
TRUE

====

Target: MEK5 (Homo sapiens)
Construct: purchased KinomeScan, a division of Ambit Biosciences
Sequence (Q13163 whole entry): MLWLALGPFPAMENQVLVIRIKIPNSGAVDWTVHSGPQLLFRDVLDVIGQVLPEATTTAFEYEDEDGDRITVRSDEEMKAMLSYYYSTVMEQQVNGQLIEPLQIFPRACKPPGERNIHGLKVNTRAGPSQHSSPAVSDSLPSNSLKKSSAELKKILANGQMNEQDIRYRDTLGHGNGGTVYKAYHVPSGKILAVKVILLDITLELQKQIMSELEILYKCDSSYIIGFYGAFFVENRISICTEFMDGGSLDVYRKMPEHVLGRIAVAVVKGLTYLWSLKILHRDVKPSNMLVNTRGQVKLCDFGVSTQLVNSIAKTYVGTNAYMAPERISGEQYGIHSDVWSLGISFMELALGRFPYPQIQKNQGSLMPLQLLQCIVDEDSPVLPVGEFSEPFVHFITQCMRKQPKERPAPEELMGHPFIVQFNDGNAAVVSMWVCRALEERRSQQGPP
Assay: KinomeScan competition binding assay
Settings: 10 μM compound
measurement kind: POC ligand binding, MEK5
Answer format reminder: number followed by unit.

GET /value?item= N#Cc1ccc2ncnc(NCc3ccc(Cl)cc3)c2c1 &field=POC ligand binding, MEK5 returns 62 POC

POC ligand binding, MEK5 recorded for this compound, CC(C)CNc1ncnc2ccc(C(F)(F)F)cc12 , is 46 POC

get_value(item= CCCNc1ncnc2ccc(N3CCOCC3)cc12 , readout=POC ligand binding, MEK5) returns 17 POC

The compound listed as N#Cc1ccc2ncnc(NCCc3ccccc3)c2c1 has a reported POC ligand binding, MEK5 of 18 POC

response.value for N#Cc1ccc2ncnc(NCCc3ccc4ccccc4c3)c2c1 (field: POC ligand binding, MEK5) = 61 POC

Item: COc1ccc2ncnc(NCCc3ccccc3)c2c1 | POC ligand binding, MEK5: 59 POC

====

Target: CIT (Homo sapiens, UniProt O14578)
Construct: purchased KinomeScan, a division of Ambit Biosciences
Sequence (O14578 whole entry): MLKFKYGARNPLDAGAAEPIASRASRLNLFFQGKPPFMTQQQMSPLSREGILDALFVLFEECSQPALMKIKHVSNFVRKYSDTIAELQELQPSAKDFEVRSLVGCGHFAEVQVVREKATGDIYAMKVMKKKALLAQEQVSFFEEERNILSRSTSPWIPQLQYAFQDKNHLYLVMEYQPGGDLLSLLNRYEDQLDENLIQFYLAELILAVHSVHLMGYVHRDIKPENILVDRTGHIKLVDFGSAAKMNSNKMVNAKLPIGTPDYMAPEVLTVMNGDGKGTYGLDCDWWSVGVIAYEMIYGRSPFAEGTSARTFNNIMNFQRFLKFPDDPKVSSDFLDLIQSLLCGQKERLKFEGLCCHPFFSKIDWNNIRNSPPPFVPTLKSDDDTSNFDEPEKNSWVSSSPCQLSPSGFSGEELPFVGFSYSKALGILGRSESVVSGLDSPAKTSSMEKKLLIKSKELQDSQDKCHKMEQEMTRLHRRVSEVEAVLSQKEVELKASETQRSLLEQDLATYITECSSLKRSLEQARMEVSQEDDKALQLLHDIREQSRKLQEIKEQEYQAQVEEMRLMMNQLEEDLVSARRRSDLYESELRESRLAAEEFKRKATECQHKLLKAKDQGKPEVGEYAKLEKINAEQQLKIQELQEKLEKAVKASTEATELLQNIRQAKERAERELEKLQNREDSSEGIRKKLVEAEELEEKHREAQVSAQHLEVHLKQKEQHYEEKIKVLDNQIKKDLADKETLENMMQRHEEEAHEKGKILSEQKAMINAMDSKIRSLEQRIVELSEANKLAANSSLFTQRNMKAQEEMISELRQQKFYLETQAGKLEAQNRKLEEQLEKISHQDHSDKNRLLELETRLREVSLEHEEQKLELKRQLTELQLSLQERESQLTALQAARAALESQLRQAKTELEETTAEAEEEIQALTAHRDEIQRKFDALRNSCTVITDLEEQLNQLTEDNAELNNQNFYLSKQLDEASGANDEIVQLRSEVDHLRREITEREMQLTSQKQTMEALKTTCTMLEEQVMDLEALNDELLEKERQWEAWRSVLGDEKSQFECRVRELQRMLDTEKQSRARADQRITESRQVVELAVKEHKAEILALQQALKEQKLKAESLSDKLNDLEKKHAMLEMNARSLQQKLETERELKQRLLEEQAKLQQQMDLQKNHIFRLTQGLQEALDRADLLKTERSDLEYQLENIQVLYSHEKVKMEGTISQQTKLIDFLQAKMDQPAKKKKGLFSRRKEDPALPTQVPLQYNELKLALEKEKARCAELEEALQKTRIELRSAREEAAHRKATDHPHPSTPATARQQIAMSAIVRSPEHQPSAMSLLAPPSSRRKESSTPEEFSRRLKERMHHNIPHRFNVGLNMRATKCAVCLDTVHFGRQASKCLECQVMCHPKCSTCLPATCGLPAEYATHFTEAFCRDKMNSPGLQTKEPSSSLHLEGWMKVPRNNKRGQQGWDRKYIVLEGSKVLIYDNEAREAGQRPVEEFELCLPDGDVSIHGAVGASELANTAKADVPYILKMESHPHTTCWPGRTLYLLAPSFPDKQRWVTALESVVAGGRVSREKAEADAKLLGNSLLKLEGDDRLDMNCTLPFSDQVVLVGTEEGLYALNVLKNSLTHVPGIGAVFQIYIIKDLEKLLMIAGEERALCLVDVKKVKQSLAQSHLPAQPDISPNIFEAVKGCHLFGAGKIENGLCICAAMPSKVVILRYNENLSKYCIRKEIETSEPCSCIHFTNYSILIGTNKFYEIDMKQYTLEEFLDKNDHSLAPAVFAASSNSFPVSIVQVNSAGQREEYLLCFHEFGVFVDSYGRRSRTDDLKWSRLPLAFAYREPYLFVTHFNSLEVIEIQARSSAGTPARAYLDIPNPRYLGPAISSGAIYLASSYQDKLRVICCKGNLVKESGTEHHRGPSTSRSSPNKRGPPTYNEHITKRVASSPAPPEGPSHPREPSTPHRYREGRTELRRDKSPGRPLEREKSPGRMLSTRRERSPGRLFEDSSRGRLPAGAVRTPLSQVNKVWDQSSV
Test: KinomeScan competition binding assay
Settings: 10 μM compound
measurement kind: POC ligand binding, CIT (POC)
Enter your answer as a number in POC; do not include the unit.

Short answer for N#Cc1ccc2ncnc(NCCc3ccc4ccccc4c3)c2c1 [compound 26] : POC ligand binding, CIT was 40

# POC ligand binding, CIT (compound: N#Cc1ccc2ncnc(NCCc3ccccc3)c2c1 [compound 1] ) is 15

Briefly, POC ligand binding, CIT measured for N#Cc1ccc2ncnc(NCc3ccc(Cl)cc3)c2c1 [compound 20] : 7.9

# POC ligand binding, CIT (compound: COc1ccc2ncnc(NCCc3ccccc3)c2c1 [compound 44] ) is 18

Record summary for CCCNc1ncnc2ccc(N3CCOCC3)cc12 [compound 46] : reported POC ligand binding, CIT = 86

Record CC(C)CNc1ncnc2ccc(C(F)(F)F)cc12 [compound 45] , field POC ligand binding, CIT: 50

====

Molecular target: PIK3CA (I800L) (Homo sapiens, UniProt P42336, I800L)
Construct: purchased KinomeScan, a division of Ambit Biosciences
Assay: KinomeScan competition binding assay
Settings: 10 μM compound
If the reported POC ligand binding, PIK3CA (I800L) equals or exceeds 80 POC, assign Satisfied. If not, assign Not satisfied.

Please indicate if the recorded POC ligand binding, PIK3CA (I800L) for CCCNc1ncnc2ccc(N3CCOCC3)cc12 meets or exceeds 80 POC.
Satisfied

Is reported POC ligand binding, PIK3CA (I800L) greater than or equal to 80 POC here: N#Cc1ccc2ncnc(NCc3ccc(Cl)cc3)c2c1
Not satisfied

Does the reported POC ligand binding, PIK3CA (I800L) for N#Cc1ccc2ncnc(NCCc3ccccc3)c2c1 fall at or above the 80 POC mark?
Not satisfied

Exam item: decide whether the reported POC ligand binding, PIK3CA (I800L) for CC(C)CNc1ncnc2ccc(C(F)(F)F)cc12 is at least 80 POC.
Satisfied

Would you say COc1ccc2ncnc(NCCc3ccccc3)c2c1 shows POC ligand binding, PIK3CA (I800L) at minimum 80 POC?
Satisfied

====

Molecular target: CLK4 (Homo sapiens, UniProt Q9HAZ1)
Construct: purchased KinomeScan, a division of Ambit Biosciences
Sequence (Q9HAZ1 whole entry): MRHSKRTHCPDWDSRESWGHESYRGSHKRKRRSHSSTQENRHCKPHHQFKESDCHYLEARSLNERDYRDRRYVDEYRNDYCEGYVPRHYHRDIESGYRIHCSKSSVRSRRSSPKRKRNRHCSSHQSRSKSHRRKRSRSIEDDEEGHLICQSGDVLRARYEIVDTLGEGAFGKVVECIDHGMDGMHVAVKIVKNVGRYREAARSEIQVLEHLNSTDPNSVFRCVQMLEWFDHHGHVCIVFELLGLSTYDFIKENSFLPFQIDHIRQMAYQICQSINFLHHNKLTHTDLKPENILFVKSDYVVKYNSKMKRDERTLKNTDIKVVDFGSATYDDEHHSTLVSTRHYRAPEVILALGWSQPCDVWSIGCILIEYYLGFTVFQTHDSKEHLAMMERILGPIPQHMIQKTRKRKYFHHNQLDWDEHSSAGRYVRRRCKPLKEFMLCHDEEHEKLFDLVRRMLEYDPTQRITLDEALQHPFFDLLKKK
Assay: KinomeScan competition binding assay
Conditions: 10 μM compound
measurement kind: POC ligand binding, CLK4 (POC)
Hi! Could you send only the number? It should be in POC, unit omitted.

POC ligand binding, CLK4 measured on COc1ccc2ncnc(NCCc3ccccc3)c2c1 = 17

The recorded POC ligand binding, CLK4 for entry N#Cc1ccc2ncnc(NCCc3ccccc3)c2c1 equals 8

POC ligand binding, CLK4 reported for this molecule N#Cc1ccc2ncnc(NCCc3ccc4ccccc4c3)c2c1 : 26

The molecule listed as N#Cc1ccc2ncnc(NCc3ccc(Cl)cc3)c2c1 has a reported POC ligand binding, CLK4 of 11

Lab book: POC ligand binding, CLK4 of CCCNc1ncnc2ccc(N3CCOCC3)cc12 noted as 24

# molecule CC(C)CNc1ncnc2ccc(C(F)(F)F)cc12 ; its POC ligand binding, CLK4 = 7.8

====

Please go through the items and note down their pKd.
Target: CDK19 (Homo sapiens, UniProt Q9BWU1)
Construct: purchased KinomeScan, a division of Ambit Biosciences
Sequence (Q9BWU1 whole entry): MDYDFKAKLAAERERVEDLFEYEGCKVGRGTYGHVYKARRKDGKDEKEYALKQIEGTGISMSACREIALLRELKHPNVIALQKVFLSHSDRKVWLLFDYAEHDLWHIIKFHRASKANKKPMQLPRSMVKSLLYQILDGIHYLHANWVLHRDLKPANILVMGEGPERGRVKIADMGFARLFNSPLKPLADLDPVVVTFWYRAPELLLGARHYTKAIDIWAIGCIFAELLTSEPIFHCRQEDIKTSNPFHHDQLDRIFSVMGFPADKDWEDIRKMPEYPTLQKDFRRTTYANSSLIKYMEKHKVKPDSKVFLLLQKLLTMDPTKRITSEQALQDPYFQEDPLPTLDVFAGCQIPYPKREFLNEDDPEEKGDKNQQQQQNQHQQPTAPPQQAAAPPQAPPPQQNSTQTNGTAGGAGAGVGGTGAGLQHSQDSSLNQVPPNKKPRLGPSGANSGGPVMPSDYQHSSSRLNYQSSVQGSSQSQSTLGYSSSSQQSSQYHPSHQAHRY
Assay: KinomeScan competition binding assay
Conditions: read-out: CDK19 inhibition (Kd)
Just the number, please; pKd means minus log10 of the concentration in mol/L.

The compound listed as CC(C)Nc1ncnc2ccc(I)cc12 shows pKd equal to 5.42

Per the records, this compound ( N#Cc1ccc2ncnc(NCc3ccc4ccccc4c3)c2c1 [compound 14] ) has pKd equal to 5.96

Form: compound = N#Cc1ccc2ncnc(NCCc3ccccc3)c2c1 ; pKd = 6.51

The recorded pKd for N#Cc1ccc2ncnc(NCc3ccc4ccccc4c3)c2c1 [compound 43] is 6.72

The compound listed as N#Cc1ccc2ncnc(NCc3ccc(Cl)cc3)c2c1 shows pKd equal to 7.00

Item: N#Cc1ccc2ncnc(NCCc3ccc4ccccc4c3)c2c1 | pKd: 6.80

====

For each record, write down the corresponding POC ligand binding, STK16.
Target: STK16 (Homo sapiens)
Construct: purchased KinomeScan, a division of Ambit Biosciences
Sequence (O75716 whole entry): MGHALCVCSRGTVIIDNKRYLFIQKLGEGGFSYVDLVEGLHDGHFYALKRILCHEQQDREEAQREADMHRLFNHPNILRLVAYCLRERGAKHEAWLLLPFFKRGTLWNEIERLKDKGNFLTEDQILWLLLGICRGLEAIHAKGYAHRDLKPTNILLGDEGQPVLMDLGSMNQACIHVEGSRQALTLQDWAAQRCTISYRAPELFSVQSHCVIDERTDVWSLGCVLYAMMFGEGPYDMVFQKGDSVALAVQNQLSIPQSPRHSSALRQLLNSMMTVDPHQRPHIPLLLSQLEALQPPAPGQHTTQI
Assay: KinomeScan competition binding assay
Conditions: 10 μM compound
The response must be a number in POC with no trailing unit.

So for N#Cc1ccc2ncnc(NCCc3ccccc3)c2c1 [compound 1] , the logged POC ligand binding, STK16 turned out to be 4.2

Reported POC ligand binding, STK16 for COc1ccc2ncnc(NCCc3ccccc3)c2c1 [compound 44] was 70

What the record says about CC(C)CNc1ncnc2ccc(C(F)(F)F)cc12 [compound 45] : POC ligand binding, STK16 is 17

What the record says about CCCNc1ncnc2ccc(N3CCOCC3)cc12 [compound 46] : POC ligand binding, STK16 is 80

Entry N#Cc1ccc2ncnc(NCc3ccc(Cl)cc3)c2c1 [compound 20] — recorded POC ligand binding, STK16 = 25

POC ligand binding, STK16 for N#Cc1ccc2ncnc(NCCc3ccc4ccccc4c3)c2c1 [compound 26] is 16

====

Molecular target: CDK8 (Homo sapiens)
Kindly supply the reported pKd values for the records listed here.
Keep in mind that pKd stands for -log10 of concentration in molar terms.

Summary: N#Cc1ccc2ncnc(NCc3ccc4ccccc4c3)c2c1 [compound 14] , CDK8 (Homo sapiens), pKd = 5.60

pKd of CC(C)Nc1ncnc2ccc(I)cc12 [SNX14] , assay on CDK8 (Homo sapiens), is 5.00

The compound N#Cc1ccc2ncnc(NCCc3ccc4ccccc4c3)c2c1 [compound 26] on CDK8 (Homo sapiens): pKd was 6.24

# N#Cc1ccc2ncnc(NCc3ccc4ccccc4c3)c2c1 [compound 43] with CDK8 (Homo sapiens): pKd is 6.62

Sample N#Cc1ccc2ncnc(NCc3ccc(Cl)cc3)c2c1 [compound 20] , system: CDK8 (Homo sapiens). Its pKd is 6.62

N#Cc1ccc2ncnc(NCCc3ccccc3)c2c1 [compound 1] on CDK8 (Homo sapiens) gives pKd = 6.08
